- procedure-details: Solubility in PBS
- Assay type: physicochemical
- assay-conditions: Solubility (uM)
Entries annotated with measured Solubility

# compound, Solubility, µM
records = [
    ("CC(=O)N1CCC[C@]12CC=CCCCC1(CCCC=CCCCCCC[C@@](C)(C(=O)N[C@@H](Cc3c[nH]cn3)C(=O)N[C@@H](Cc3csc4ccccc34)C(=O)N[C@@H](CCC(N)=O)C(N)=O)NC(=O)[C@H](C)NC(=O)[C@H](Cc3ccccc3)NC(=O)[C@H](C)NC(=O)[C@H](C)NC(=O)[C@H](CC(=O)O)NC(=O)[C@H](CC(=O)O)NC1=O)NC(=O)[C@H](C)NC(=O)[C@H](CC(=O)O)NC2=O (some centres unmarked) [I-362]", 47),
    ("CC(=O)N1CCC[C@]12CC=CCCCC1(CCCC=CCCCCCC[C@@](C)(C(=O)N[C@@H](Cc3ccccc3Cl)C(=O)N[C@@H](Cc3csc4ccccc34)C(=O)N[C@@H](CCO)C(N)=O)NC(=O)[C@H](CCO)NC(=O)[C@H](Cc3ccccc3)NC(=O)[C@H](C)NC(=O)[C@H](C)NC(=O)[C@H](CN(CC(=O)O)CC(F)(F)F)NC(=O)[C@H](CC(=O)O)NC1=O)NC(=O)[C@H](CC(C)(C)C)NC(=O)[C@H](CC(=O)O)NC2=O (some centres unmarked) [I-1000]", 44),
]

###

- tested-system: full-length beta-Catenin (Uniprot ID P35222) (Homo sapiens, UniProt P35222)
- Construct: 10 nM full-length beta-Catenin (Uniprot ID P35222)
- Sequence (P35222 whole entry): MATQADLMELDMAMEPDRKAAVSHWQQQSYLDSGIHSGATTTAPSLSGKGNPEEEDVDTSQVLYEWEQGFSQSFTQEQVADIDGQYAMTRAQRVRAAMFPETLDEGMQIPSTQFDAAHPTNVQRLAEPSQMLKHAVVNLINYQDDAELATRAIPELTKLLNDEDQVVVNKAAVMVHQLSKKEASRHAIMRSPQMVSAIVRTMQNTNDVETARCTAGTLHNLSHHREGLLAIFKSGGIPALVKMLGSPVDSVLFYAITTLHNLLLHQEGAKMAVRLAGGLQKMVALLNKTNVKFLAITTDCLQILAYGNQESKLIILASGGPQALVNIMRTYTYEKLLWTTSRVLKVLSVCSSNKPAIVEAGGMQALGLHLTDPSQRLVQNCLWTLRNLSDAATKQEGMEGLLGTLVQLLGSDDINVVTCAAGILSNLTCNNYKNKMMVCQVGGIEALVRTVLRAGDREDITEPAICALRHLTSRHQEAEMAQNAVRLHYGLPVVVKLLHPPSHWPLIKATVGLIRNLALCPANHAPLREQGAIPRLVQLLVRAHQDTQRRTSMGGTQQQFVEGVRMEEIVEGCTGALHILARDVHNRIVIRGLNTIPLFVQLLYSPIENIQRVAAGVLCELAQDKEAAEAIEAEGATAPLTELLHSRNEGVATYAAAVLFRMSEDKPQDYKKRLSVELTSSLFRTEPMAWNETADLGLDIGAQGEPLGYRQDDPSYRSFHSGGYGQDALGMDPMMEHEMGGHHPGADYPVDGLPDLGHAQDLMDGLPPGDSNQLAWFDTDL
- procedure-details: Fluorescence polarization IC50 (beta-catenin / 5FAM-TCF4 10-53 competition)
- Assay type: binding
- assay-conditions: fluorescence polarization; read-out: beta-Catenin FP IC50

# compound, IC50
rows = [
    ("CC(=O)N1CCC[C@]12CCCCCCC1(CCCCCCCCOC(=O)N3CC[C@](C(=O)N[C@@H](Cc4ccsc4)C(=O)N[C@@H](Cc4csc5ccccc45)C(=O)N[C@@H](CCC(N)=O)C(N)=O)(C3)NC(=O)[C@H](CC(C)C)NC(=O)[C@H](Cc3ccccc3)NC(=O)[C@H](C)NC(=O)[C@H](C)NC(=O)[C@H](CC(=O)O)NC(=O)[C@H](CC(=O)O)NC1=O)NC(=O)[C@H](CC(C)(C)C)NC(=O)[C@H](CC(=O)O)NC2=O (stereo partly drawn) [I-2022]", "1890 nM"),
    ("CC(=O)N1CCC[C@]12CC=CCCCC1(CCCC=CCOC(=O)N3CC[C@@](C(=O)N[C@@H](Cc4ccsc4)C(=O)N[C@@H](Cc4csc5ccccc45)C(=O)N[C@@H](CCC(N)=O)C(N)=O)(C3)NC(=O)[C@H](CC(C)C)NC(=O)[C@H](Cc3ccccc3)NC(=O)[C@H](C)NC(=O)[C@H](C)NC(=O)[C@H](CC(=O)O)NC(=O)[C@H](CC(=O)O)NC1=O)NC(=O)[C@H](CC(C)(C)C)NC(=O)[C@H](CC(=O)O)NC2=O (stereo partly drawn) [I-1818]", "236 nM"),
    ("CC(=O)N1CCC[C@]12CC=CCCCC1(CCCC=CCCCOC(=O)N3CC[C@@](C(=O)N[C@@H](Cc4cccnc4)C(=O)N[C@@H](Cc4csc5ccccc45)C(=O)N[C@@H](CCO)C(N)=O)(C3)NC(=O)[C@H](CC(N)=O)NC(=O)[C@H](Cc3ccccc3)NC(=O)[C@H](C)NC(=O)[C@H](CCCCNC(C)C)NC(=O)[C@H](CCC(N)=O)NC(=O)[C@H](CC(=O)O)NC1=O)NC(=O)[C@H](CC1CCCCC1)NC(=O)[C@H](CC(N)=O)NC2=O (stereo partly drawn) [I-1927]", "5140 nM"),
]

These entries and their values trace back to patent US20240116985A1.
